substrate: CCCC(=O)Oc1ccc([N+](=O)[O-])cc1; assay: purified protein; assay type: biochemical, Sutcliffiella cohnii; settings: 50 mM Tris-HCl pH 8.0, 20 °C
MEASURED_PARAMETER: kcat (s⁻¹)
// note: answer is a bare numeric in s⁻¹

Give recorded kcat. EstN7 (Sutcliffiella cohnii; W206A) (protein, recombinant, purified from E. coli BL21(DE3); dimer; catalytic triad S157, D254, H284) MKNRIDPELRAMLDMFPPLNLDDVQATRKAMEEAAQLTELPVDEEVVVSNRMVPGPEDNPYVRVRIYEPKEKIEKLPGLLWIHGGGYVLGAPEGDDLLCQRFVKEANCVVVSVDYRLAPEHPYPAPLEDCYAALQWFAKKVDELGVDASRIGVGGQSAGGGLTAALALLARDRKGPELCFQMPLYPMIDDKNNSPSSLEITGNLIANHDLNEKGWSMYLDGKNGTDDVPVHAAPARATDLTNLPYTYTCVGQLDPFRDETLDYVKRLCQAGVDVEFHLYPGAYHGFETLNPAAAVSQRALAEYVGAVKHVLNREKVVERK
8

Give recorded kcat. EstN7 (Sutcliffiella cohnii; N211A) (protein, recombinant, purified from E. coli BL21(DE3); dimer; catalytic triad S157, D254, H284) MKNRIDPELRAMLDMFPPLNLDDVQATRKAMEEAAQLTELPVDEEVVVSNRMVPGPEDNPYVRVRIYEPKEKIEKLPGLLWIHGGGYVLGAPEGDDLLCQRFVKEANCVVVSVDYRLAPEHPYPAPLEDCYAALQWFAKKVDELGVDASRIGVGGQSAGGGLTAALALLARDRKGPELCFQMPLYPMIDDKNNSPSSLEITGNLIWNHDLAEKGWSMYLDGKNGTDDVPVHAAPARATDLTNLPYTYTCVGQLDPFRDETLDYVKRLCQAGVDVEFHLYPGAYHGFETLNPAAAVSQRALAEYVGAVKHVLNREKVVERK
15

Give recorded kcat. EstN7 (Sutcliffiella cohnii) (protein, recombinant, purified from E. coli BL21(DE3); dimer; catalytic triad S157, D254, H284) MKNRIDPELRAMLDMFPPLNLDDVQATRKAMEEAAQLTELPVDEEVVVSNRMVPGPEDNPYVRVRIYEPKEKIEKLPGLLWIHGGGYVLGAPEGDDLLCQRFVKEANCVVVSVDYRLAPEHPYPAPLEDCYAALQWFAKKVDELGVDASRIGVGGQSAGGGLTAALALLARDRKGPELCFQMPLYPMIDDKNNSPSSLEITGNLIWNHDLNEKGWSMYLDGKNGTDDVPVHAAPARATDLTNLPYTYTCVGQLDPFRDETLDYVKRLCQAGVDVEFHLYPGAYHGFETLNPAAAVSQRALAEYVGAVKHVLNREKVVERK
0.32

Give recorded kcat. EstN7 (Sutcliffiella cohnii; M187A/N211A) (protein, recombinant, purified from E. coli BL21(DE3); dimer; catalytic triad S157, D254, H284) MKNRIDPELRAMLDMFPPLNLDDVQATRKAMEEAAQLTELPVDEEVVVSNRMVPGPEDNPYVRVRIYEPKEKIEKLPGLLWIHGGGYVLGAPEGDDLLCQRFVKEANCVVVSVDYRLAPEHPYPAPLEDCYAALQWFAKKVDELGVDASRIGVGGQSAGGGLTAALALLARDRKGPELCFQMPLYPAIDDKNNSPSSLEITGNLIWNHDLAEKGWSMYLDGKNGTDDVPVHAAPARATDLTNLPYTYTCVGQLDPFRDETLDYVKRLCQAGVDVEFHLYPGAYHGFETLNPAAAVSQRALAEYVGAVKHVLNREKVVERK
17.6
